Consider the following GI50 values measured on HCT-15.

>  <Molecule>
O=c1[nH]cnc(NC2C=C(CO)C(O)C2O)c1[N+](=O)[O-] (centres undefined)

>  <Obs Value>
> 40.3 µM

$$$$
>  <Molecule>
O=c1oc2ccc3ccccc3c2cc1-c1cn2c(n1)sc1ccccc12

>  <Obs Value>
> 100 µM

$$$$
>  <Molecule>
O=C1NC(O)CCN1C1CC(O)C(CO)O1 (centres undefined)

>  <Obs Value>
> 100 µM

$$$$

Okay, next one:
Request: Report value: GI50, system: HCT-15, molecule: "Cn1c(=O)c2nc3nnc(C#N)c(N)n3c2n(C)c1=O"
Result: > 100 µM

====

- System: UACC-62
- Method Description: NCI tumour cell line growth inhibition, 48 h
Calls of active or inactive are those of the source. Rule as the data show it: active = GI50 up to about 1.1 µM and inactive = higher.
Write down one outcome, taken from class 1 = active, class 0 = inactive

Request: What did the test return for "CN(C)CCNc1nc2ccccc2c2c1CCCC2" ?
Result: class 0

Request: What did the test return for "CC1=Nc2c(N)nc(N)nc2N(C)C1" ?
Result: class 0

Request: What did the test return for "Oc1cc(-c2ccc3ccccc3c2)nc2ncc(Cl)cc12" ?
Result: class 0

Request: What did the test return for O=C1C=CC(=O)C2C1Cc1ccccc1C2c1ccccc1 (stereo not given) ?
Result: class 0

Request: What did the test return for "CC(=O)Nc1ccc(NC(=O)c2c(Cl)c(Cl)c(Cl)c(Cl)c2-c2nc3ccccc3[nH]2)cc1" ?
Result: class 0

Request: What did the test return for "N#CCCC[Si]12OCCN(CCO1)CCO2" ?
Result: class 0

Request: What did the test return for "CN(C(=O)CCC(=O)O)c1ccccc1C(=O)O" ?
Result: class 0

Request: What did the test return for "Cc1ccc(Nc2nc3ccccc3c(=O)n2N)cc1" ?
Result: class 0

Request: What did the test return for "CC1(C)CCC[C@](C)([C@H]2CC[C@]3(C)[C@@H]2[C@H](O)C[C@@H]2[C@@]4(C)CC[C@H](O)C(C)(C)[C@@H]4[C@H](O)C[C@]23C)O1" ?
Result: class 0

Request: What did the test return for CSC1=C(C#N)C(=S)N=C(N)C1C(=O)Nc1ccc(C)cc1 (stereo not given) ?
Result: class 0

Request: What did the test return for O=C(NC(Cc1c[nH]c2ccccc12)C(=O)O)/C(=C/c1ccccc1O)NC(=O)c1ccccc1 (stereo not given) ?
Result: class 0

Request: What did the test return for O=c1[nH]cnc(NC2C=C(CO)C(O)C2O)c1[N+](=O)[O-] (stereo not given) ?
Result: class 0

Request: What did the test return for "N=C(CSSCC(=N)NCC12CC3CC(CC(C3)C1)C2)NCC12CC3CC(CC(C3)C1)C2" ?
Result: class 0

Request: What did the test return for CC(Sc1ccccc1)C(CO)(CO)[N+](=O)[O-] (stereo not given) ?
Result: class 0

Request: What did the test return for "CC(C)C(=O)Nc1nc2[nH]cnc2c(=O)[nH]1" ?
Result: class 0

Request: What did the test return for Cc1cc(Cc2cc(C)c(NC(=O)C(=O)C3CCC4=C(SC5C=CC=CC5N4)C3=O)c(C(C)C)c2)cc(C(C)C)c1NC(=O)C(=O)C1CCC2=C(SC3C=CC=CC3N2)C1=O (stereo not given) ?
Result: class 0

====

- Test system: OVCAR-4
- Method Description: NCI tumour cell line growth inhibition, 48 h
Calls of active or inactive are those of the source. Cut-off read from the data, not from the text of the source: active = GI50 up to about 1.1 µM and inactive = higher.
GI50 values for the molecules below.

Worked examples follow.
>  <Molecule>
CC(C)NC(=O)OCc1c(COC(=O)NC(C)C)c(-c2ccc(Cl)c(Cl)c2)n2c1CCC2

>  <Obs Value>
> 66.5 µM (inactive)

$$$$
>  <Molecule>
O=P1(Oc2ccccc2)N(CCCl)CCN1c1ccccc1 (stereo not given)

>  <Obs Value>
23.4 µM (inactive)

$$$$
>  <Molecule>
Cc1occc1C(=S)Nc1ccc(Cl)c(/C=N/OC(C)(C)C)c1

>  <Obs Value>
18.3 µM (inactive)

$$$$
>  <Molecule>
CC(=O)Oc1ccc2c(c1)Oc1cc(C(C)=O)ccc1C21OC(=O)c2ccccc21 (stereo not given)

>  <Obs Value>
> 100 µM (inactive)

$$$$
>  <Molecule>
Cc1nn(C(=O)c2ccccc2O)c2c1C(c1ccc3ccccc3c1O)SC(=N)N2 (stereo not given)

>  <Obs Value>
5.13 µM (inactive)

$$$$
>  <Molecule>
O=c1oc2ccc3ccccc3c2cc1-c1cn2c(n1)sc1ccccc12

>  <Obs Value>
> 100 µM (inactive)

$$$$
>  <Molecule>
CC(=O)OCc1cncn1S(=O)(=O)c1ccc(C)cc1

>  <Obs Value>
> 76.7 µM (inactive)

$$$$
>  <Molecule>
Cn1cnc2c(NCc3ccccc3)nc(NCCO)nc21

>  <Obs Value>
94.2 µM (inactive)

$$$$
>  <Molecule>
CCOC(=O)Cc1cc(OC)c(OC)cc1/C(Cl)=C(\C=O)c1ccc(OC)c(OC)c1

>  <Obs Value>
18.5 µM (inactive)

$$$$

Request: Give GI50 for "COc1ccc(-c2cc(O)c3c(C)ccnc3n2)cc1"
Result: 24.8 µM (inactive)

====

- Test system: NCI-H460
- Method Description: NCI tumour cell line growth inhibition, 48 h
Active and inactive are the calls of the source. No stated cut-off is given here; in the data, active = GI50 up to about 1.1 µM and inactive = higher.
Experimental Readout: GI50

Worked examples follow.
>  <Molecule>
COc1ccc(NC(C)=O)cc1N1C(=O)/C(=C\c2cc(OC)c(OC)c(OC)c2)SC1c1ccccc1 (stereo unspecified)

>  <Experimental Readout>
GI50

>  <Obs Value>
43.2 µM (inactive)

$$$$
>  <Molecule>
CN(C)CCNC(=O)c1cccc2ncc(-c3ccccc3)nc12

>  <Experimental Readout>
GI50

>  <Obs Value>
4.41 µM (inactive)

$$$$
>  <Molecule>
O=[N+]([O-])c1c(/C=N/c2ccccc2)oc(-c2ccc3c(c2)OCO3)c1-c1ccc2c(c1)OCO2

>  <Experimental Readout>
GI50

>  <Obs Value>
> 100 µM (inactive)

$$$$
>  <Molecule>
CCOC(=O)/C(C(=O)Nc1cccc(Cl)c1)=C(/N)N1CCOCC1

>  <Experimental Readout>
GI50

>  <Obs Value>
> 100 µM (inactive)

$$$$
>  <Molecule>
CC1=Nc2c(N)nc(N)nc2N(C)C1

>  <Experimental Readout>
GI50

>  <Obs Value>
> 100 µM (inactive)

$$$$
>  <Molecule>
CCOc1ccc(N/C(Cl)=C(Cl)\C(=C(\Nc2ccc(OCC)cc2)n2nnc3ccccc32)[N+](=O)[O-])cc1

>  <Experimental Readout>
GI50

>  <Obs Value>
24.7 µM (inactive)

$$$$

Request: Give GI50 for "O=C(/C=C/c1ccc(O)c(O)c1)c1ccc(O)cc1O"
Result: 15.2 µM (inactive)

Request: Give GI50 for "COc1ccc(S(=O)(=O)N/N=C\c2cc([N+](=O)[O-])cc(I)c2O)c(OC)c1OC"
Result: 33 µM (inactive)

Request: Give GI50 for "C/C(=N\NC(=O)Nc1ccccc1Cl)c1ccc(O)cc1"
Result: 20.9 µM (inactive)

====

GI50 values for the compounds below.
- System: SK-MEL-28
- Method Description: NCI tumour cell line growth inhibition, 48 h
Active and inactive are the calls of the source. No stated cut-off is given here; in the data, active = GI50 up to about 1.1 µM and inactive = higher.

Worked examples follow.
>  <Substance Smiles>
Cc1ccc(S(=O)(=O)CC(=O)CC(=O)C(=O)Nc2cccc(C(F)(F)F)c2)cc1

>  <GI50>
> 100 µM (inactive)

$$$$
>  <Substance Smiles>
CN(C)c1ccc(/C=C(\NC(=O)c2ccccc2)c2nn(C)c(=O)o2)cc1

>  <GI50>
> 100 µM (inactive)

$$$$

Okay, next one:
Request: Give GI50 for "CN(C)S(=O)(=O)n1ccnc1"
Result: > 100 µM (inactive)

====

- Test system: SK-MEL-28
- Method Description: NCI tumour cell line growth inhibition, 48 h
The source made the active and inactive calls. No stated cut-off is given here; in the data, active = GI50 up to about 1.1 µM and inactive = higher.
Write down one outcome, taken from active, inactive

Here are 10 molecules together with their reported answers.
>  <Molecule>
c1ccc([P+](c2ccccc2)(c2ccccc2)c2ccc([P+](c3ccccc3)(c3ccccc3)c3ccccc3)c3ccccc23)cc1

>  <Label>
inactive

$$$$
>  <Molecule>
Cc1cnc2nc(-c3cccc4ccccc34)cc(O)c2c1

>  <Label>
active

$$$$
>  <Molecule>
COC1CC(N)C(O)C(C)O1 (stereo not drawn)

>  <Label>
inactive

$$$$
>  <Molecule>
Cc1c(C)c2c(c(N)c1C#N)C(=O)N(NC(=O)c1ccccc1)C2=O

>  <Label>
inactive

$$$$
>  <Molecule>
CC(C)(C)[Si](C)(C)Oc1cc(CO)cc2c1cc(=N)o[n+]2[O-]

>  <Label>
inactive

$$$$
>  <Molecule>
O=C(Nc1ccccc1C(=O)NCCCO)/C(=C/c1ccccc1O)NC(=O)c1ccccc1

>  <Label>
inactive

$$$$
>  <Molecule>
CCc1c(-c2ccc(OC)cc2)oc(OC)c(C)c1=O

>  <Label>
inactive

$$$$
>  <Molecule>
Nc1nc2[nH]cnc2c(=S)[nH]1

>  <Label>
inactive

$$$$
>  <Molecule>
C(=C\c1ccc2ccccc2c1Nc1ccccc1)/c1ccccc1

>  <Label>
inactive

$$$$
>  <Molecule>
N#CCN1CCN(CC#N)CCN(CC#N)CCN(CC#N)CC1

>  <Label>
inactive

$$$$

Request: What did the test return for "O=C1CN(/N=C/c2ccc(-c3ccc(F)cc3)o2)C(=O)N1" ?
Result: inactive

Request: What did the test return for C=CC(OC(C)=O)c1ccc(OC(=O)C(C)C)c(OC)c1 (stereo not drawn) ?
Result: inactive

Request: What did the test return for "Cn1cccc(C(=O)c2ccccc2)c1=O" ?
Result: inactive
